Measured values drawn from patent US20130210846A1 for this set.

TESTED_ON: VEGF receptor tyrosine kinase-2 (VEGF-R2) (Homo sapiens)
Sequence (P35968 20-1356, species assumed): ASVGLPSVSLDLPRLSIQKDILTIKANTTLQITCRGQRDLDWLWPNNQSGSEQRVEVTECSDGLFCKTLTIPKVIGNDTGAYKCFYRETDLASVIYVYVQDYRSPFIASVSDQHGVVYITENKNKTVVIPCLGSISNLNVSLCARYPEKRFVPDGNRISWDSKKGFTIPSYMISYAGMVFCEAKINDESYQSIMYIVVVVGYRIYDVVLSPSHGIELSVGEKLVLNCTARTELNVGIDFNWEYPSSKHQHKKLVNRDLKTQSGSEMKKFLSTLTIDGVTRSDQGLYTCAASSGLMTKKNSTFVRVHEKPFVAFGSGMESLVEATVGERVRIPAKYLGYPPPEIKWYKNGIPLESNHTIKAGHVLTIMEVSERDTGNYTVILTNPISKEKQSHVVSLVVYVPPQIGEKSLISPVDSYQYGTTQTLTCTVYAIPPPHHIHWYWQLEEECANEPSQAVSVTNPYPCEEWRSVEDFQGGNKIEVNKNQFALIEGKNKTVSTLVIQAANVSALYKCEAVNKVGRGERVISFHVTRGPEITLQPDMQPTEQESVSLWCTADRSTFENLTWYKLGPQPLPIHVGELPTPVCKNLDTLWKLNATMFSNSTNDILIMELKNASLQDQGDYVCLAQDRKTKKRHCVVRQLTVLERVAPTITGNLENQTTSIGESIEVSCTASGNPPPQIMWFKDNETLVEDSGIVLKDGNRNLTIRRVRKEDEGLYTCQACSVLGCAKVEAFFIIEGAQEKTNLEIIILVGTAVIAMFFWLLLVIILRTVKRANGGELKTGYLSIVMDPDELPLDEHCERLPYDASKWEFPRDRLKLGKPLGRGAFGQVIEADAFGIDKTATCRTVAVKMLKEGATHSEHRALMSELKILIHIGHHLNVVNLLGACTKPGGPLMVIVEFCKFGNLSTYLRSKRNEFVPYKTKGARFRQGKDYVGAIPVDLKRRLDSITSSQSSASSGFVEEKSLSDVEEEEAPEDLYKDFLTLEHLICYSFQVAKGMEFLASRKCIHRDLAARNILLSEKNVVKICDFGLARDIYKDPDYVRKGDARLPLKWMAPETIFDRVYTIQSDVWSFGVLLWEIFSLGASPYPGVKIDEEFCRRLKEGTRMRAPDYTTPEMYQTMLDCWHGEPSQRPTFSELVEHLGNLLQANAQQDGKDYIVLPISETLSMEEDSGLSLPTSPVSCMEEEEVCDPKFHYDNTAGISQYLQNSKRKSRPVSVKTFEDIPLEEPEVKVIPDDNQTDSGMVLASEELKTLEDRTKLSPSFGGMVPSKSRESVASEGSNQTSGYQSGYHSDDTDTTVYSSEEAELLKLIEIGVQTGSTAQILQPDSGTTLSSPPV
METRIC: IC50 (nM)

{"COMPOUND": "C[C@@H](Nc1nc(Nc2ccc(S(C)(=N)=O)cc2)ncc1C(F)(F)F)C(C)(C)O (single isomer, unassigned) [Example 9-SI-1]", "TESTED_ON": "VEGF receptor tyrosine kinase-2 (VEGF-R2) (Homo sapiens)", "OBSERVED": 158}
{"COMPOUND": "C[C@@H](O)[C@@H](C)Oc1nc(Nc2ccc(S(C)(=N)=O)cc2)ncc1C(F)(F)F (single isomer, unassigned)", "TESTED_ON": "VEGF receptor tyrosine kinase-2 (VEGF-R2) (Homo sapiens)", "OBSERVED": 281}
{"COMPOUND": "C[C@@H](Nc1nc(Nc2ccc(S(=N)(=O)C3CC3)cc2)ncc1C(F)(F)F)C(C)(C)O (mixture of isomers) [Example 5-SI-1]", "TESTED_ON": "VEGF receptor tyrosine kinase-2 (VEGF-R2) (Homo sapiens)", "OBSERVED": 70}
{"COMPOUND": "C[C@@H](Nc1nc(Nc2ccc(S(=N)(=O)C3CC3)cc2)ncc1C(F)(F)F)C(C)(C)O (mixture of isomers) [Example 5-SI-2]", "TESTED_ON": "VEGF receptor tyrosine kinase-2 (VEGF-R2) (Homo sapiens)", "OBSERVED": 82}
{"COMPOUND": "C[C@@H](Nc1nc(Nc2ccc(S(C)(=N)=O)cc2)ncc1C(F)(F)F)C(C)(C)O (single isomer, unassigned) [Example 9-SI-2]", "TESTED_ON": "VEGF receptor tyrosine kinase-2 (VEGF-R2) (Homo sapiens)", "OBSERVED": 154}

A. CCS(=N)(=O)c1ccc(Nc2ncc(C(F)(F)F)c(N[C@H](C)[C@@H](C)O)n2)cc1 (mixture of isomers)
B. C[C@@H](O)[C@@H](C)Oc1nc(Nc2ccc(S(=N)(=O)C3CC3)cc2)ncc1C(F)(F)F (mixture of isomers)
Return label of the item with the larger IC50. Candidates: A , B . Mark your answer with the label of the selected entry.
B
(B: 163 nM, A: 73 nM)
